Measured pIC50, listed per entry.
- assay target: bovine cardiac myosin (Bos taurus (Bovine))
- Sequence (Q9BE39 whole entry): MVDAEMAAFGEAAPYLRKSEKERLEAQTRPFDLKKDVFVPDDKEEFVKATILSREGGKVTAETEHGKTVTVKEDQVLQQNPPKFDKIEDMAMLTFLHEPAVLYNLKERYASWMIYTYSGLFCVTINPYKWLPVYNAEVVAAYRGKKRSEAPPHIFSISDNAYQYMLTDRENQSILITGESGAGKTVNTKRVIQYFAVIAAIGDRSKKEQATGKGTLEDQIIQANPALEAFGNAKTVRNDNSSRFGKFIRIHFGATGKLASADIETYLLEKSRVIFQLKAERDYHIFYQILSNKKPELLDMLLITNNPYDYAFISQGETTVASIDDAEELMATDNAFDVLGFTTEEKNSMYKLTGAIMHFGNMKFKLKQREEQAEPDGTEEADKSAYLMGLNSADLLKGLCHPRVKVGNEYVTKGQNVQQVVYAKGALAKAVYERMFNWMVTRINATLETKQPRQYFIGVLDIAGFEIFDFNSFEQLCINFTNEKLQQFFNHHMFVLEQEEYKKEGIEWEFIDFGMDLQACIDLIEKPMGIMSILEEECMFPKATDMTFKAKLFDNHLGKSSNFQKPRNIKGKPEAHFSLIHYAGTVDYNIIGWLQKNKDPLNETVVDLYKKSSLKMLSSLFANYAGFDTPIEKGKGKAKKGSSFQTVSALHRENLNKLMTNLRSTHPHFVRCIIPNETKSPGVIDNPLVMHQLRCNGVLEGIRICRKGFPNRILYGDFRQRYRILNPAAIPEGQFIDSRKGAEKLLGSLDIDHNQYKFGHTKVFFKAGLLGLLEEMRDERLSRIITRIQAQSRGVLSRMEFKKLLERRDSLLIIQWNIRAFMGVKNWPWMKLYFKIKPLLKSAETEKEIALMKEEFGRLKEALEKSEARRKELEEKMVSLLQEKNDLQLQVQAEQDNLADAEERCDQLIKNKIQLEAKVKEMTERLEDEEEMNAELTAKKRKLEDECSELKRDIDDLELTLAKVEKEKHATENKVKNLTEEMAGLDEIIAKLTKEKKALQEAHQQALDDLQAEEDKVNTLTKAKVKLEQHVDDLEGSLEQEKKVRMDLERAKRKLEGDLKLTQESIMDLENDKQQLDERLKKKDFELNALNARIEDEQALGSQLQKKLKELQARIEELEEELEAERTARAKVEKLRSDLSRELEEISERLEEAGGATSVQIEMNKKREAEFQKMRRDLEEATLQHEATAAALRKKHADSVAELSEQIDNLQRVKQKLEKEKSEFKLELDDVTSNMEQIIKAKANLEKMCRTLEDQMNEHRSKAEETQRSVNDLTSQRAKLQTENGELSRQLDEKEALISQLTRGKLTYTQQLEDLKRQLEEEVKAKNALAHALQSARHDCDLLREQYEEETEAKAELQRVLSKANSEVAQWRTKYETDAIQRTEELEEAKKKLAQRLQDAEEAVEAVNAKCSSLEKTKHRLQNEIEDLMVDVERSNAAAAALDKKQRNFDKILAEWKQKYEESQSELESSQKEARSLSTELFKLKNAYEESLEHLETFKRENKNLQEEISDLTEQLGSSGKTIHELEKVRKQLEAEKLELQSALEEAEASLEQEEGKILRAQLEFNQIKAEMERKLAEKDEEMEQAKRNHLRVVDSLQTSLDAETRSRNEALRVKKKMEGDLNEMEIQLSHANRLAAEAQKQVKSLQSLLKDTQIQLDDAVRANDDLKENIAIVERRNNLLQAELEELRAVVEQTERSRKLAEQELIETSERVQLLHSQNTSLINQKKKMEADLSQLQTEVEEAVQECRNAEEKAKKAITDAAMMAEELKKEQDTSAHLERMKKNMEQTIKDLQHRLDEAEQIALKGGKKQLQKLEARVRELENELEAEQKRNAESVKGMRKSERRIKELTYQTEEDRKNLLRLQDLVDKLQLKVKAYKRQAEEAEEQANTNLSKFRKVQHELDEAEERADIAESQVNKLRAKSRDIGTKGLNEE
- Sequence (P85100 whole entry partner): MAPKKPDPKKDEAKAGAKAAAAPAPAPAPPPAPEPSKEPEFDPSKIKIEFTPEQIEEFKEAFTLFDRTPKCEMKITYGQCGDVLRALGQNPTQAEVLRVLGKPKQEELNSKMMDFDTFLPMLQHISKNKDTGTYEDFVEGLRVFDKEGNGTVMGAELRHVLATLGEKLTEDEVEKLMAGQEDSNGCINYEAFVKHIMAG
- Sequence (Q3SZE5 whole entry partner): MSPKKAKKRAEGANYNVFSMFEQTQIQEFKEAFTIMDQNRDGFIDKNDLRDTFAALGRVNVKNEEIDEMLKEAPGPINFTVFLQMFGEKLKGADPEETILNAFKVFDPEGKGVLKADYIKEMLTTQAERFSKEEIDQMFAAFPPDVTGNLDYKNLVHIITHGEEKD
- assay summary: Myosin inhibitory potency: PK/LDH-coupled ATPase assay on bovine skinned cardiac myofibrils
- conditions: pCa=6.25, 50 μM ATP, 25° C., read-out: myosin inhibition activity IC50
pIC50: −log10 of the molar value.
measure: pIC50

> print(dat)
                                   compound  readout.value
1  Cc1ccc([C@H](C)Nc2nc(=O)n(C3CCOCC3)c(=O)[nH]2)c(C)c1 [Example 168]           5.77
2  C[C@H](Nc1nc(=O)n(C2CCOCC2)c(=O)[nH]1)c1cc(Cl)cc(Cl)c1 [Example 151]           5.75
3  CC(Nc1nc(=O)n(C2CCOCC2)c(=O)[nH]1)c1ccccc1F (stereo not drawn) [Example 121]           5.58
4  C[C@H](Nc1nc(=O)n(C2CCN(C)C(=O)C2)c(=O)[nH]1)C1CCCCC1 (stereo partly drawn) [Example 23]           5.09
5  CC(C)n1c(=O)nc(N[C@@H](C)C2CCCCC2)[nH]c1=O [Example 45]           5.55
6  Cc1cccc([C@H](C)Nc2nc(=O)n(C3CCOCC3(C)C)c(=O)[nH]2)c1 (stereo partly drawn) [Example 99]           5.03
7  COc1cccc([C@H](C)Nc2nc(=O)n(C3CCOCC3)c(=O)[nH]2)c1 [Example 326]           5.87
8  CC(Nc1nc(=O)n(C2CCNCC2)c(=O)[nH]1)c1ccc(F)cc1 (stereo not drawn) [Example 188]           5.36
9  CC(Nc1nc(=O)n(C2CCOCC2)c(=O)[nH]1)c1cc(F)ccc1F (stereo not drawn) [Example 319]           5.89
